Tested on: SH-SY5Y cells
Assay: AK (adenylate kinase) release ToxiLight cytotoxicity assay; also: reference of the scale not given here
Conditions: PKIS2 primary screening
Here, each record is paired with measured AK data.
Form rule: numeric answer, no unit written next to it.

Known results for compounds:
>>> df
                                   compound            tgt  measured_number
0  [2H]C([2H])(c1cccc(C(F)(F)F)c1C)n1ccn2c(=O)nc(N3CCOCC3)cc12 [UNC10243860A]  SH-SY5Y cells            87.88
1  O=C(Nc1n[nH]c2cc(-c3ccccc3F)ccc12)C1CC1 [SB-733371]  SH-SY5Y cells            88.17
2  Cc1nnc(-c2ccc(C)c(-c3ccc(C(=O)Nc4ccc(NS(C)(=O)=O)cc4)cc3)c2)o1 [UNC10225285A]  SH-SY5Y cells            85.18
3  Nc1nccc2scc(-c3ccc4c(c3)CCN4C(=O)Cc3ccccc3)c12 [UNC10225119A]  SH-SY5Y cells           128.12

Shift focus to the following entry.
Asked: Assign AK to the following record: Nc1ncnc2[nH]c(-c3ccccc3)nc12 [UNC10243863A]
Given back: 85.62
